Attribution: patent US20210292414A1

- Test Target: T1, hBack
- T1 chimeric human/tetraodon Sortilin extracellular region, BAP tag: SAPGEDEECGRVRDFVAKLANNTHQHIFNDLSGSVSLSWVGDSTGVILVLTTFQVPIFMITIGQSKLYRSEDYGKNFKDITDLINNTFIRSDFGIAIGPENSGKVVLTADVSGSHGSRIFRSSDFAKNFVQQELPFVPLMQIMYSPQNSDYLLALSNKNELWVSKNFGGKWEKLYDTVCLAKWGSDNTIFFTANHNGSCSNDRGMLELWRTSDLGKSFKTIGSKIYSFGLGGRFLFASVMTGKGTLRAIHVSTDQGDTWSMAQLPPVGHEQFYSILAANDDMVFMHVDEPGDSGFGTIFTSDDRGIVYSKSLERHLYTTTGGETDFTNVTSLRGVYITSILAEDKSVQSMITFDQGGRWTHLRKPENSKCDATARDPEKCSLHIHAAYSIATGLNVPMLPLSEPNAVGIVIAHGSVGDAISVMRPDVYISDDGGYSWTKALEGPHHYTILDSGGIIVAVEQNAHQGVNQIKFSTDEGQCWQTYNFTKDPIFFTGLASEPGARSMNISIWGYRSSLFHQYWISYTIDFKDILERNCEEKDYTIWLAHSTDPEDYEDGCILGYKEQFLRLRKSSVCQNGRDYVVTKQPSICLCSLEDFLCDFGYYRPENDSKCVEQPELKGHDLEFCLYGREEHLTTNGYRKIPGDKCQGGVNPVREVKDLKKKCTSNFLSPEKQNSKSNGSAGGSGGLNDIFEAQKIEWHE
- Protocol Summary: BLI (Octet384RED)
Listed here are binders together with their documented EC50.
Value expressed in ng/mL; do not type the unit.

Consider the following illustrative entries.
Binder	Value Unit	EC50
Antibody 6003-900 (antibody, human IgG1, V domains shown, also called antibody 900; Sortilin human antibody 900) VH: EVQLVESGGGLVKPGGSLRLSCAASGFTFSSYSMNWVRQAPGKGLEWVSSISSSSSYIYYADSVKGRFTISRDNAKNSLYLQMNSLRAEDTAVYYCARRGSGSYDAFDIWGQGTMVTVSS VL: EIVLTQSPDFQSVTPKEKVTITCRASQSIGYSLHWYQQKPDQSPKLLIKYASQSFSGVPSRFSGSGSGTDFTLTINSLEAEDAAAYYCHQSSSLPLTFGGGTKVEIK	ng/mL	1.16
IgG1-6003-972 (antibody, V domains shown, also called Antibody 6003-972) VH: QVQLVESGGGVVQPGRSLRLSCAASGFTFSDYAMHWVRRAPGKGLEWVVVISYDGSNKYYADSVKGRFTISRDNSKNTLYLQMNSLRAEDTAVYYCARDPSGGWYFDLWGRGTLVTVSS VL: EIVLTQSPATLSLSPGERATLSCRASQSVSSYLAWYQQKPGQAPRLLIYDASNRATGIPARFSGSGSGTDFTLTISSLEPEDFALYYCQQRSHWPRTFGQGTKVEIK	ng/mL	1.49

The record that follows has no EC50 shown yet.
(Q) Bench note: what EC50 did Antibody 6003-822 (antibody, human IgG1, V domains shown) VH: EVQLLESGGGLVQPGESLTLSCAASGFTLSSYAMSWVRQAPGKGLEWVSSISGRLGTTYYAASVKGRFTISRDNSKNTLYLQMNSLRAEDTAIYSCAKAPSDAFDIWGQGTMVTVSS VL: EIVLTQSPATLSLSPGERATLSCRASQSVSSYLAWYQQKPGQAPRLLIYDASNRATGIPARFSGSGSGTDFTLTISSLEPEDFAVYYCQQRSNWPIFTFGPGTKVDIK show?
(A) 2.59
